- study-target: beta-catenin/TCF4 engagement (Homo sapiens)
- Construct: expressed in transfected cells; host or cells: HEK293
- Sequence (P35222 whole entry): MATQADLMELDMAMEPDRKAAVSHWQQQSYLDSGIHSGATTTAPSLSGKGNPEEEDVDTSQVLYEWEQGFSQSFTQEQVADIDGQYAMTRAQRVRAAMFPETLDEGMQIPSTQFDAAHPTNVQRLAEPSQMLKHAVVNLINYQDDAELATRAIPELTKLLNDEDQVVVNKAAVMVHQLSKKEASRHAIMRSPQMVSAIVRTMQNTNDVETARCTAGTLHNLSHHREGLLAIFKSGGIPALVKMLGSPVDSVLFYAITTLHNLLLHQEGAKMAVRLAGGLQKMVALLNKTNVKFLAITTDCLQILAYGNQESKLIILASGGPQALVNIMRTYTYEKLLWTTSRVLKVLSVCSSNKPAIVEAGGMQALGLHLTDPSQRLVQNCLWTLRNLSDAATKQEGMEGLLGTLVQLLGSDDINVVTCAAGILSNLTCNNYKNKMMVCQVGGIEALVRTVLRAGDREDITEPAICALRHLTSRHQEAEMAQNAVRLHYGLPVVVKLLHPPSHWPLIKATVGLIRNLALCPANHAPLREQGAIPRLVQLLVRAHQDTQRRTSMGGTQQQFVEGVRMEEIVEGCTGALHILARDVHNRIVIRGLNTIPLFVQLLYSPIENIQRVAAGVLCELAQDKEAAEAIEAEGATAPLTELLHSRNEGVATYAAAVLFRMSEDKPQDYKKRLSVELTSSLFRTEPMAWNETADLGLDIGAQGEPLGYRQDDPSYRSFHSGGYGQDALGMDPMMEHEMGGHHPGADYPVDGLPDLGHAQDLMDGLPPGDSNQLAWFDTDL
- assay-remarks: Nano-BRET target engagement assay (B-cat-Halo & TCF4-Luc in HEK293 cells)
- Type: cell-based
- particulars: absolute IC50; read-out: NanoBRET Abs IC50
Catalogue of IC50 values
Give your result in µM as a bare value.

>  <compound>
CC(=O)N1CCC[C@]12CC=CCCCC1(CCCC=CCCCOC(=O)N3CC[C@@](C(=O)N[C@@H](Cc4ccccc4C(F)(F)F)C(=O)N[C@@H](Cc4csc5ccccc45)C(=O)N[C@@H](CCC(N)=O)C(=O)N[C@@H](CC(C)C)C(=O)N[C@H](C)C(N)=O)(C3)NC(=O)[C@H](CC(C)C)NC(=O)[C@H](Cc3ccccc3)NC(=O)[C@H](C)NC(=O)[C@H](C)NC(=O)[C@H](Cc3cccc(C(=O)O)c3)NC(=O)[C@H](CC(=O)O)NC1=O)NC(=O)[C@H](CC(C)(C)C)NC(=O)[C@H](CC(=O)O)NC2=O (some centres unmarked)

>  <observed>
5.5

$$$$

# ---- query compound ----
Need IC50 of CC(=O)N1CCC[C@]12CC=CCCCC1(CCCC=CCCCOC(=O)N3CC[C@@](C(=O)N[C@@H](Cc4ccccc4F)C(=O)N[C@@H](Cc4csc5ccccc45)C(=O)N[C@@H](CCC(N)=O)C(N)=O)(C3)NC(=O)[C@H](CC(C)C)NC(=O)[C@H](Cc3ccccc3)NC(=O)[C@H](C)NC(=O)[C@H](C)NC(=O)[C@H](CC(=O)O)NC(=O)[C@H](CC(=O)O)NC1=O)NC(=O)[C@H](CC(C)(C)C)NC(=O)[C@H](CC(=O)O)NC2=O (some centres unmarked) , thanks. 10.9

====

- study-target: full-length B-Catenin (Uniprot ID P35222) (Homo sapiens)
- Construct: 65 nM full-length B-Catenin (Uniprot ID P35222)
- assay-remarks: Alphascreen binding assay (beta-catenin / biotin-TCF4 10-53)
measured-quantity: pEC50
API: returns pEC50 as number; meaning -log10 of concentration in mol/L.

>  <compound>
CC(=O)N1CCC[C@]12CC=CCCCC1(CCCC=CCCCCCC[C@@](C)(C(=O)N[C@@H](Cc3ccccc3)C(=O)N[C@@H](Cc3c[nH]c4ccccc34)C(=O)N[C@@H](CCC(N)=O)C(N)=O)NC(=O)[C@H](C(C)C)NC(=O)[C@H](Cc3cccc(C)c3)NC(=O)[C@H](C)NC(=O)[C@H](C)NC(=O)[C@H](CCC(=O)O)NC(=O)[C@H](CC(=O)O)NC1=O)NC(=O)[C@H](C)NC(=O)[C@H](CC(=O)O)NC2=O (stereo partly drawn) [I-207]

>  <observed>
6.84

$$$$
>  <compound>
CC(=O)N[C@@H](Cc1ccccc1)C(=O)N[C@@H](CC(=O)O)C(=O)N[C@@H](C)C(=O)N[C@]1(C)CCCCCCC=CCOC(=O)N2CC[C@@](C(=O)N[C@@H](Cc3c(F)c(F)c(F)c(F)c3F)C(=O)N[C@@H](Cc3c[nH]c4ccccc34)C(=O)N[C@@H](CCC(N)=O)C(N)=O)(C2)NC(=O)[C@H](C(C)C)NC(=O)[C@H](Cc2ccccc2)NC(=O)[C@H](C)NC(=O)[C@H](C)NC(=O)[C@H](CC(=O)O)NC(=O)[C@H](CC(=O)O)NC1=O [I-227]

>  <observed>
5.23

$$$$

For the next question, use this compound.
API: value(readout=pEC50, system=full-length B-Catenin (Uniprot ID P35222) (Homo sapiens)) for record CC(=O)N[C@@H](Cc1ccccc1)C(=O)N[C@@H](CC(=O)O)C(=O)N[C@@H](C)C(=O)NC12CN(C1)C(=O)OCC=CCCCCCC[C@@](C)(C(=O)N[C@@H](Cc1ccccc1)C(=O)N[C@@H](Cc1c[nH]c3ccccc13)C(=O)N[C@@H](CCC(N)=O)C(N)=O)NC(=O)[C@H](C(C)C)NC(=O)[C@H](Cc1ccccc1)NC(=O)[C@H](C)NC(=O)[C@H](C)NC(=O)[C@H](CC(=O)O)NC(=O)[C@H](CC(=O)O)NC2=O [I-35] 5.02

====

- assay-remarks: in vitro
- Format: cell-based
- particulars: human, HEK293 cells, CTG (CellTiter Glo) Relative to Media
Catalogue of viability at 10 µM readings, one per entry.
Give just the numeric value; % need not be written.

>  <compound>
CC(=O)N1CCC[C@]12CC=CCCCC1(CCCC=CCCCOC(=O)N3CC[C@@](C(=O)N[C@@H](Cc4ccsc4)C(=O)N[C@@H](Cc4csc5ccccc45)C(=O)N[C@@H](CCC(N)=O)C(N)=O)(C3)NC(=O)[C@H](CC(N)=O)NC(=O)[C@H](CC(=O)O)NC(=O)[C@H](C)NC(=O)[C@H](C)NC(=O)[C@H](CC(=O)O)NC(=O)[C@H](CC(=O)O)NC1=O)NC(=O)[C@H](CC(C)(C)C)NC(=O)[C@H](Cc1ccccc1)NC2=O (some centres unmarked)

>  <measurement-units>
%

>  <viability at 10 µM>
100

$$$$

Okay, next one:
Using the record for CC(=O)N1CCC[C@]12CC=CCCCC1(CCCC=CCCCOC(=O)N3CC[C@@](C(=O)N[C@@H](Cc4ccsc4)C(=O)N[C@@H](Cc4csc5ccccc45)C(=O)N[C@@H](CCC(N)=O)C(=O)N[C@H](C)C(N)=O)(C3)NC(=O)[C@H](CC(N)=O)NC(=O)[C@H](Cc3ccccc3)NC(=O)[C@H](C)NC(=O)[C@H](C)NC(=O)[C@H](CC(=O)O)NC(=O)[C@H](CC(=O)O)NC1=O)NC(=O)[C@H](CC(C)(C)C)NC(=O)[C@H](CC(=O)O)NC2=O (some centres unmarked) , report its viability at 10 µM. 90

====

Below: a set of entries, each annotated with reported Solubility.
- assay-remarks: Solubility in PBS
- Assay type: physicochemical
Answer format: numeric, µM implied, no suffix.

>  <compound>
CC[C@H](C)[C@@H]1NC(=O)[C@H](CC(=O)O)NC(=O)[C@]2(CC=CCCCC3(CCCC=CCCCCCC[C@@](C)(C(=O)N[C@@H](Cc4ccccc4)C(=O)N[C@@H](Cc4csc5ccccc45)C(=O)N[C@@H](CCC(N)=O)C(N)=O)NC(=O)[C@H](CCC(N)=O)NC(=O)[C@H](Cc4cccs4)NC(=O)[C@H](C)NC(=O)[C@H](C)NC(=O)[C@H](CCC(=O)O)NC(=O)[C@H](CC(=O)O)NC3=O)NC1=O)CCCN2C(C)=O (stereo partly drawn) [I-485]

>  <measurement-units>
µM

>  <Solubility>
50

$$$$
>  <compound>
CC(=O)N1CCC[C@]12CC=CCCCC1(CCCC=CCCCOC(=O)N3CC[C@@](C(=O)N[C@@H](Cc4ccsc4)C(=O)N[C@@H](Cc4csc5ccccc45)C(=O)N[C@@H](Cc4ccc(O)cc4)C(N)=O)(C3)NC(=O)[C@H](CC(N)=O)NC(=O)[C@H](Cc3ccccc3)NC(=O)[C@H](C)NC(=O)[C@H](C)NC(=O)[C@H](CN(CC(=O)O)CC(F)(F)F)NC(=O)[C@H](CC(=O)O)NC1=O)NC(=O)[C@H](CC(C)(C)C)NC(=O)[C@H](CC(=O)O)NC2=O (stereo partly drawn) [I-953]

>  <measurement-units>
µM

>  <Solubility>
47

$$$$

Given CC(=O)N1CCC[C@]12CC=CCCCC1(CCCC=CCCCOC(=O)N3CC[C@@](C(=O)N[C@@H](Cc4ccccc4Cl)C(=O)N[C@@H](Cc4csc5ccccc45)C(=O)N[C@@H](CCC(N)=O)C(N)=O)(C3)NC(=O)[C@H](CO)NC(=O)[C@H](Cc3ccccc3)NC(=O)[C@H](C)NC(=O)[C@H](C)NC(=O)[C@H](CC(N)=O)NC(=O)[C@H](CC(=O)O)NC1=O)NC(=O)[C@H](CC(C)(C)C)NC(=O)[C@H](CC(=O)O)NC2=O (stereo partly drawn) [I-1018] , state its recorded Solubility. 10

====

- study-target: full-length beta-Catenin (Uniprot ID P35222) (Homo sapiens, UniProt P35222)
- Construct: 10 nM full-length beta-Catenin (Uniprot ID P35222)
- Sequence (P35222 whole entry, one chain of several): as the sequence (P35222 whole entry) above
- assay-remarks: Fluorescence polarization IC50 (beta-catenin / 5FAM-TCF4 10-53 competition)
- Format: binding
- particulars: fluorescence polarization; read-out: beta-Catenin FP IC50
We begin with a simple list: items and their reported pIC50.
pIC50 here is simply -log10 of the concentration when that concentration is written in mol/L.

Worked set:
>  <molecule>
CC[C@H](C)[C@@H]1NC(=O)[C@H](CC(=O)O)NC(=O)[C@]2(CC=CCCCC3(CCCC=CCCCCCC[C@@](C)(C(=O)N[C@@H](Cc4ccccc4)C(=O)N[C@@H](Cc4csc5ccccc45)C(=O)N[C@@H](CCC(N)=O)C(N)=O)NC(=O)[C@H](CCC(N)=O)NC(=O)[C@H](Cc4ccccc4)NC(=O)[C@H](C)NC(=O)[C@H](C)NC(=O)[C@H](CCC(=O)O)NC(=O)[C@H](CC(=O)O)NC3=O)NC1=O)CCCN2S(C)(=O)=O (some centres unmarked) [I-711]

>  <study-target>
full-length beta-Catenin (Uniprot ID P35222) (Homo sapiens, UniProt P35222)

>  <observed>
7.06

$$$$
>  <molecule>
CC(=O)N1CC2CC1C(=O)N[C@@H](CC(=O)O)C(=O)N[C@@H](CC(C)(C)C)C(=O)NC1(CCCCCCCCOC(=O)N3CC[C@@](C(=O)N[C@@H](Cc4ccsc4)C(=O)N[C@@H](Cc4csc5ccccc45)C(=O)N[C@@H](CCC(N)=O)C(N)=O)(C3)NC(=O)[C@H](CC(C)C)NC(=O)[C@H](Cc3ccccc3)NC(=O)[C@H](C)NC(=O)[C@H](C)NC(=O)[C@H](CN(CC(=O)O)CC(F)(F)F)NC(=O)[C@H](CC(=O)O)NC1=O)CCCCCCCC(=O)O2 (some centres unmarked)

>  <study-target>
full-length beta-Catenin (Uniprot ID P35222) (Homo sapiens, UniProt P35222)

>  <observed>
7.17

$$$$

Which pIC50 value belongs to CC(=O)N1CCC[C@]12CC=CCCCC1(CCCC=CCCCCOC(=O)N3CC(C(=O)N[C@@H](Cc4ccsc4)C(=O)N[C@@H](Cc4csc5ccccc45)C(=O)N[C@@H](CCC(N)=O)C(N)=O)(C3)NC(=O)[C@H](CC(C)C)NC(=O)[C@H](Cc3ccccc3)NC(=O)[C@H](C)NC(=O)C(C)(C)NC(=O)[C@H](Cc3cccc(C(=O)O)c3)NC(=O)[C@H](CC(=O)O)NC1=O)NC(=O)[C@H](CC(C)(C)C)NC(=O)[C@H](CC(=O)O)NC2=O (some centres unmarked) [I-2619] ? 7.44

Entry CC(=O)N1CCC[C@]12CC=CCCCC1(CCCC=CCCCOC(=O)N3CC[C@@](C(=O)N[C@@H](Cc4ccccc4Cl)C(=O)N[C@@H](Cc4csc5ccccc45)C(=O)N[C@@H](CCC(N)=O)C(N)=O)(C3)NC(=O)[C@H](CO)NC(=O)[C@H](Cc3ccccc3)NC(=O)[C@H](C)NC(=O)[C@H](CC(C)C)NC(=O)[C@H](CC(=O)O)NC(=O)[C@H](CC(=O)O)NC1=O)NC(=O)[C@H](CC1CCCCC1)NC(=O)[C@H](CC(=O)O)NC2=O (some centres unmarked) has what pIC50? 8.00

Suppose we examine the molecule CC(=O)N1CCC[C@]12CC=CCCCC1(CCCC=CCCCOC(=O)N3CC[C@@](C(=O)N[C@@H](Cc4ccsc4)C(=O)N[C@@H](Cc4c[nH]c5ccccc45)C(=O)N[C@@H](CCC(N)=O)C(N)=O)(C3)NC(=O)[C@H](CC(N)=O)NC(=O)[C@H](Cc3ccccc3)NC(=O)[C@H](C)NC(=O)[C@H](C)NC(=O)[C@H]([C@@H](C)O)NC(=O)[C@H](CC(N)=O)NC1=O)NC(=O)[C@H](CC(C)(C)C)NC(=O)[C@H](CC(=O)O)NC2=O (some centres unmarked) [I-1876] ; what pIC50 value has been reported? 5.87
